- measured-target: P-glycoprotein 1 (P-gp) (Homo sapiens)
- Construct: its P-gp overexpressing variant (SW1573/PGP); endogenous in cells; host or cells: SW1573 and SW1573/PGP (SW1573/Pgp) human non-small cell lung cancer cells, provided by Dr. G. J. Peters (Amsterdam)
- Sequence (P08183 whole entry): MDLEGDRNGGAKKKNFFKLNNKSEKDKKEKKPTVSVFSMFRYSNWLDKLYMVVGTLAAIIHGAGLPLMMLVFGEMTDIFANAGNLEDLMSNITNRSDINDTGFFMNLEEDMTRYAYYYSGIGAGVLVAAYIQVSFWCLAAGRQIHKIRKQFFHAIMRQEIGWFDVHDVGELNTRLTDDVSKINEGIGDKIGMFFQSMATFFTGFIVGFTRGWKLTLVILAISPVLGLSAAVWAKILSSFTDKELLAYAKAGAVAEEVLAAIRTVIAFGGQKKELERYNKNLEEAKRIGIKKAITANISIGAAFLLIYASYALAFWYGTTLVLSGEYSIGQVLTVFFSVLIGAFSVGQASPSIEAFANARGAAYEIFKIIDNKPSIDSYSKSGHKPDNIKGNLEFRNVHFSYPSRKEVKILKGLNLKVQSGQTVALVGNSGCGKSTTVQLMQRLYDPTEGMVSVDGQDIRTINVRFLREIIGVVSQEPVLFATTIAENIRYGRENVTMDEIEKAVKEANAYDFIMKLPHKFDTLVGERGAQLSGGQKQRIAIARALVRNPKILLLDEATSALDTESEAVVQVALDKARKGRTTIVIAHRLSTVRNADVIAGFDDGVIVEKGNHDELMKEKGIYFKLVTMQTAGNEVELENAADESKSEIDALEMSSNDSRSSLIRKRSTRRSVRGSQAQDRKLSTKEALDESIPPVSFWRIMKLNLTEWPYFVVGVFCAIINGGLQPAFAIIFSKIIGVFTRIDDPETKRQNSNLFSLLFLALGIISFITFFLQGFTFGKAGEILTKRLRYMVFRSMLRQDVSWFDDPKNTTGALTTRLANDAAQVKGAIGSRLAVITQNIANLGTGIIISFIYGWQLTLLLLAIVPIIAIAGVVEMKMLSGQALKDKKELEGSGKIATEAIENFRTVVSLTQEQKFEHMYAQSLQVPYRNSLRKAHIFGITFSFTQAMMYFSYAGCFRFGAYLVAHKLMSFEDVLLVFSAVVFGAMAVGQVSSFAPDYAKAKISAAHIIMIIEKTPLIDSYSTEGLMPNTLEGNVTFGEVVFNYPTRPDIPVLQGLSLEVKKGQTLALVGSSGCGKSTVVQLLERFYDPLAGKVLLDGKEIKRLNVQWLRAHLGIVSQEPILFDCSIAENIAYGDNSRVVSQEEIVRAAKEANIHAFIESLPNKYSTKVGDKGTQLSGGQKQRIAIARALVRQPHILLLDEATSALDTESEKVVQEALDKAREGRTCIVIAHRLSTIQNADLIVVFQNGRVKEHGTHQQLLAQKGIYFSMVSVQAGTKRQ
- method-description: P-glycoprotein assay (SW1573/PGP vs SW1573, resistance factor)
- Type: cell-based
- run-parameters: ratio between GI50 values in SW1573/PGP and SW1573 cells, with 10 µM verapamil
measured-property: Rf w Verapamil
Returns: the value as a bare number; no unit string appended.

Some entries whose results are on file:
Challenge: Supply Rf w Verapamil value. Item: C[C@]12CCC3C(CC=C4C[C@@H](O)CC[C@@]43C)C1CCC2C1=CC(c2ccccc2)NC(=N)N1 (stereo partly shown)
Response given: 0.7

Challenge: Consider the compound C[C@]12CC[C@H]3[C@@H](CC=C4C[C@@H](O)CC[C@@]43C)[C@@H]1CC[C@@H]2C(=O)/C=C/c1ccccc1 . State its measured Rf w Verapamil.
Response given: 1.5

Continuing:
Challenge: Supply recorded Rf w Verapamil for CC(=O)O[C@H]1C(=O)[C@@]2(C)[C@H]([C@H](OC(=O)c3ccccc3)[C@]3(O)C[C@H](OC(=O)[C@H](O)[C@@H](NC(=O)c4ccccc4)c4ccccc4)C(C)=C1C3(C)C)[C@]1(OC(C)=O)CO[C@@H]1C[C@@H]2O [PTX, Paclitaxel, reference compound] here.
Response given: 2.6

Challenge: Tell me Rf w Verapamil reported for C[C@]12CCC3C(CC=C4C[C@@H](O)CC[C@@]43C)C1CCC2C1=CC(c2ccccc2)NC(=O)N1 (stereo partly shown)
Response given: 1.6

Taken from paper PMC6832952.
